The origin of these recorded values is patent US20110177071A1.

MEASURED TARGET: T1, human CD86-murine Ig fusion protein (human)
T1 construct: Bought (Ancell #509-820); also called hCD86-mIg
T1 chain: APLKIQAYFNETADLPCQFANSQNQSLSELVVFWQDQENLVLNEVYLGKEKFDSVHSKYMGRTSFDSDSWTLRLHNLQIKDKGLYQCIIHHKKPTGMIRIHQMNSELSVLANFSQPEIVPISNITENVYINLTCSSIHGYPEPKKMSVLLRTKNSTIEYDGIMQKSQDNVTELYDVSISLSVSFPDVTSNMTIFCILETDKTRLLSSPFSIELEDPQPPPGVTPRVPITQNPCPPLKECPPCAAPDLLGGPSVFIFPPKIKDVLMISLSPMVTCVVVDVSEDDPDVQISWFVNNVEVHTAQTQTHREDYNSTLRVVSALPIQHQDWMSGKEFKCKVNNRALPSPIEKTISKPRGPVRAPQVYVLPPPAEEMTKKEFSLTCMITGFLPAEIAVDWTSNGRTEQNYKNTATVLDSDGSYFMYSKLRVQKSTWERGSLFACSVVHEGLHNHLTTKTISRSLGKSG
PROCEDURE TEXT: SPR Biacore, hCD86-mIg captured
PARAMETER MEASURED: Binding Avidity (Relative to Orencia)

Query block: Item D23-IgG2 (Fc fusion) MHVAQPAVVLASSRGIASFVCEYSAPHNAAEIRVTVLRKAGSQVTEVCAMTYMKEDELTFLDDPSCTGTFSGNQVNLTIQGLRAADTGLYICKVELMYPPPYYLGLGNGTQIYVIDPEPCPDSDERKCCVECPPCPAPPVAGPSVFLFPPKPKDTLMISRTPEVTCVVVDVSHEDPEVQFNWYVDGVEVHNAKTKPREEQFNSTFRVVSVLTVVHQDWLNGKEYKCKVSNKGLPAPIEKTISKTKGQPREPQVYTLPPSREEMTKNQVSLTCLVKGFYPSDIAVEWESNGQPENNYKTTPPMLDSDGSFFLYSKLTVDKSRWQQGNVFSCSVMHEALHNHYTQKSLSLSPG : provide Binding Avidity (Relative to Orencia)
Result block: > 40 fold
